Quick reference for IC50 among some compounds
Tested on: MV-4-11
Assay: Antiproliferation assay (Assay 7), MV-4-11
Assay type: cell-based
Details: Homo sapiens, MV4-11, 72 h, CellTiter-Glo, several values per example, read-out: Antiproli MV-4-11 [M] IC50

Some solved entries appear below for comparison.
CCc1c2c(nn1C)CN(C)S(=O)(=O)CCCn1c(C(=O)O)c(CCCOc3cccc4c3CCCC4)c3ccc(F)c-2c31 (racemic) [Example 34] ... 4.83e-06 M
Cc1c2c(nn1C)CN(C)S(=O)(=O)CCCn1c(C(=O)O)c(CCCOc3cccc4c3CCC4)c3ccc(F)c-2c31 (racemic) [Example 27] ... 8.61e-07 M
Cc1c2c(nn1C)CN(C)S(=O)(=O)CCCC1C(C(=O)O)=C(CCCOc3cccc4ccccc34)c3cccc-2c31 (racemic) [Example 10] ... 1.54e-05 M

Requested field: IC50. Item: CCc1c2c(nn1C)CN(C)S(=O)(=O)CCCn1c(C(=O)O)c(CCCOc3ccc(F)c4ccccc34)c3ccc(F)c-2c31 (racemic) [Example 35] 4.34e-06 M

Requested field: IC50. Item: CCc1c2c(nn1C)CN(C)S(=O)(=O)CCCn1c(C(=O)O)c(CCCOc3cccc4ccccc34)c3ccc(F)c-2c31 (racemic) [Example 31] 4.7e-06 M

Requested field: IC50. Item: Cc1c2c(nn1C)CN(C)S(=O)(=O)CCCn1c(C(=O)O)c(CCCOc3ccc(F)c4ccccc34)c3ccc(F)c-2c31 [Example 30] 3.5e-06 M

Requested field: IC50. Item: CCc1c2c(nn1C)CN(C)S(=O)(=O)CCCn1c(C(=O)O)c(CCCOc3cccc4cc(F)ccc34)c3ccc(F)c-2c31 (racemic) [Example 7] 1.35e-06 M

Requested field: IC50. Item: CCc1c2c(nn1C)CN(CCCN1CCCC1)S(=O)(=O)CCCn1c(C(=O)O)c(CCCOc3cccc4ccccc34)c3cccc-2c31 (racemic) [Example 16] > 3.3e-05 M

Requested field: IC50. Item: CCc1c2c(nn1C)CN(C)S(=O)(=O)CCCn1c(C(=O)O)c(CCCOc3ccc(F)c4ccccc34)c3ccc(Cl)c-2c31 [Example 24] 2.5e-06 M

Requested field: IC50. Item: CCc1c2c(nn1C)CNS(=O)(=O)CCCn1c(C(=O)O)c(CCCOc3cccc4ccccc34)c3cccc-2c31 (racemic) [Example 17] 1.65e-05 M

Requested field: IC50. Item: Cc1c2c(nn1C)CN(C)S(=O)(=O)CCCn1c(C(=O)O)c(CCCOc3cccc4c3CCCC4)c3ccc(F)c-2c31 (racemic) [Example 29] 5.86e-06 M

Requested field: IC50. Item: CCc1c2c(nn1C)C(C)N(C)S(=O)(=O)CCCn1c(C(=O)O)c(CCCOc3cccc4ccccc34)c3cccc-2c31 (racemic) [Example 18] 3.75e-06 M
